test system: SK-OV-3 ovarian; experiment: NCI tumour cell line growth inhibition, 48 h
measurementType: TGI

Answered examples (5):
• COC(=O)NC/C=C\c1nc(CC/C=C\C(=O)OC2CC3CC(=O)O[C@H](/C=C/CC(C)C)C[C@H]4CCC(C)C(C[C@H](OC)CC(C2)O3)O4)co1 (stereo partly specified) = > 100 µM
• N#CC(c1nc2ccccc2s1)c1nc(Cl)ncc1Br (stereo unspecified) = > 100 µM
• O=C1C=C(N2CCCC2)C(=O)c2c(O)ccc(O)c21 = > 10 µM
• COC(=O)C1=C(O)C(C(=O)OC)[C@]2(O)[C@H](C(=O)OC)[C@H]1C[C@@H](c1cccc(OC)c1)[C@H]2C(=O)OC (stereo partly specified) = 66.6 µM
• O=C(/C=C/C=C/c1ccccc1)CCc1ccccc1 = > 100 µM

Ask: Looking for the measured TGI of O=C(CCCC1Cc2ccccc2C1=O)c1ccccc1 (stereo unspecified) , can you help?
Reply: > 100 µM

Ask: Looking for the measured TGI of Nc1ccccc1/C=C\c1ccccc1 , can you help?
Reply: > 100 µM

Ask: Looking for the measured TGI of COc1cc(CCNC2=CC(=O)c3cccnc3C2=O)ccc1O , can you help?
Reply: 11.1 µM

Ask: Looking for the measured TGI of CN(C)NC1=NS(=O)(=O)c2cc3c(cc2S1)N(N(C)C)C(=O)c1cc2c(cc1N(N(C)C)C3=O)SC(NN(C)C)=NS2(=O)=O , can you help?
Reply: > 10 µM

Ask: Looking for the measured TGI of CC1(CO)OC1COCc1ccccc1 (stereo unspecified) , can you help?
Reply: > 100 µM

Ask: Looking for the measured TGI of Cc1cccc(C)c1NC(=O)CCCC(=O)CC(=O)/C=C/c1ccccc1 , can you help?
Reply: > 100 µM

----------
test system: UACC-62 melanoma; test: NCI tumour cell line growth inhibition, 48 h
measurementType: TGI

Answered examples (4):
• CC1(C)COCN1COC1CCCCC1 = > 100 µM
• N/N=C(\CC1OC(=O)c2ccccc21)c1ccco1 (stereo not given) = > 100 µM
• N#Cc1ccccc1NC(=O)/C(=N\NC(=O)c1ccncc1)C(c1cnc2ccc([N+](=O)[O-])cc2n1)[N+](=O)[O-] (stereo not given) = > 100 µM
• O=C(Nc1ccc(-n2cc(-c3ccncc3)c(-c3ccc(O)c(Cl)c3)n2)cc1)c1cc(Cl)cc(Cl)c1 = > 32.5 µM

Ask: What is its TGI for UACC-62 melanoma? Entry: S=c1nc(Oc2ccc(Cl)c(Cl)c2)[nH]c(=S)[nH]1
Reply: > 60.3 µM

Ask: What is its TGI for UACC-62 melanoma? Entry: COc1cc(NC(=O)c2cc(OC)c3ccn(C)c3c2)cc2c1C[C@]1(C)CC[C@@H](O)C(C)(C)[C@H]1O2
Reply: 49.6 µM

Ask: What is its TGI for UACC-62 melanoma? Entry: O=c1[nH]nc(-c2ccc([N+](=O)[O-])cc2)n1/N=C/c1ccc([N+](=O)[O-])cc1
Reply: > 100 µM

Ask: What is its TGI for UACC-62 melanoma? Entry: OCC(O)C(O)C(O)C1SC(c2ccccc2)=NN1c1ccccc1 (stereo not given)
Reply: 74.2 µM

Ask: What is its TGI for UACC-62 melanoma? Entry: CN(C)c1ccc(/C=N/n2c(-c3ccccc3)nc3ccccc3c2=O)cc1
Reply: > 100 µM

Ask: What is its TGI for UACC-62 melanoma? Entry: N#Cc1ccc(OC(=O)c2ccc(N=C(N)N)cc2)cc1
Reply: > 100 µM

Ask: What is its TGI for UACC-62 melanoma? Entry: COC(=O)C1=C(O)C(C(=O)OC)[C@]2(O)[C@H](C(=O)OC)[C@H]1C[C@@H](c1cccc(OC)c1)[C@H]2C(=O)OC (stereo not given in full)
Reply: 35.1 µM
